- Procedure summary: soluble on expression in E. coli; label from the status in PepcDB or PDB records
Property measured: soluble on expression in E. coli

Below are worked cases with known answers.
MKSGEKDYSVKEAMIFSQRIAQLSKALWKCVEKDWQQWIKPYDLNINEHHILTIAYHLKGASISEIAKFGVMHVSTAFNFSKKLEERGYLVFSKKEDDKRNTYIEITDKGEELLLRLMEEYDPENNSVFNGALALRNFYGKFPENIELIAILRNIYGQDFIDIFEKSLEDIEENFTESDQKLVKK; not soluble
MSLSTKDVKELAIEQAKKFGGKLEVCPKVPIETKADLGIAYTPGVAAVSSAIHEKKERAYELTTKKNTVAVISDGSAVLGLGNIGPEAAMPVMEGKAALFKRFAGVDSIPLVLDTQDTEEIIQTVKFLAPTFGGINLEDISAPRCFEIEQRLIDELDIPVFHDDQHGTAIVVLAALYNSLKLINKKIEDIHVVINGGGSAGLSITRKFLAAGVKHIIIVDRAGILSETDTALPPHHAEIAKLTNREHRTGDLATALEGADVFVGVSAPGVLKPEWIQQMNEQPVIFAMANPVPEIFPDEALAAGAYIVGTGRSDFPNQINNVLAFPGIFRGALDARAKKITIEMQIAAAKGIAKLIPDNELTPTNIIPDPFQEGVAKVVAESVRNAVKETNEGHHHHHH; soluble
MAKVSVVMPVYNSEKYLKESIESILNQSYSDLEFIIINDGSTDNSFKIIKEYAKLDKRINVISRENKGIVYSLNEAIRLAKGEYIARMDADDISAPKRIEKQISFLKSHRDIDILGTQVKVVGNISNDIKEKNENKLNIEFDIYDDNREKILNYWYCLAHPSVMFRKDILRELKGYNDFKSEDLDLWLRAIESGFKIYKLKEELIYFRMHEESKTRVDNQNYEGLKDGIKIKLIDVFKREFKKDFKYIVWGASNGGKITKEVLDEFFEKSQCIAFVDKFKTGEFEKIRILHPKDINHIKFDYVFIATEPGKEEAMSSLKSMGLKCIKDFLSTVLEHHHHHH; not soluble
MSSDPDKMMSKADKMTKLTLTRWSADWRGATELYEQAANGFRASNKYEKAKVALEKASKGQEMQASPWDAAKHMESAAALAQKLSIWNEVADFYRKASELYVECGRAQPASDALGKAARALEDVKPDDAIQLYTDACEILEEDGRDQMAFDLYRACANVYIKLEKFTDAATFFLRLGVAADKCDATNSQCKAYLSAIILYLYAHDLQQAEKCYNDCSQIDAFLKSDQSRSASRLLTAYNEGDIEEIKKVASASTVSNLDHMIIKLARKLPTGDVTAIQMNTNDDLDEDDLT; soluble
GSMSTKNFRVSDGDWICPDKKCGNVNFARRTSCDRCGREKTTGPI; soluble

Would you kindly look at the next entry?
Entry MGSDKIHHHHHHMSRVGIPRSLFYYYYYPLWKSFFSDLGVEILTSAPSNRHTVERGIELAVDETCFPIKVYLGHVAELCREELDYLFIPRLVSVEARSYICPKFMGLPDIVRALIKETPPLIDITVDLSRDEKCFKKDIIRVGRLFTRQASRIQLAYQHGCEELRLCRSLASQGFTMEEAIKIWEGGAMEAEPETDLNIGVLGHGYSLYDERISMNLVKRLRAMNCKVLLPEHLGSEVVEAEAATVPKRVFWTLGRKMLGSALHLSQREDVDGIIYLACFGCGPDSLIGEIIERKVRDCKPFILLTVDEHSGEAGIITRLEAFCDMLRRRRNCGSESKLSPYGVSLHSFENTV , soluble on expression in E. coli reported as not soluble

---

- Procedure summary: soluble on expression in E. coli; label from the status in PepcDB or PDB records
Property measured: soluble on expression in E. coli

MRPIEEFVYVGNQVIVPDQASLMRCYYPIIGGEGYALYQYFVAFYDNGNHRHKFATILNHLNFGMQPLQESLAVLTAVDLLAFYHSPQGIYVVELKSPLSIEQFLKHAVYSSLLEQKIGEPAVDALKPTSLHGLQDLSKRFSDVFTDERLAQKSVSEIKPKNSFDLISFRNRMQADGLVFTDEKTDVPEIYKLSETYDMNWYDTYLLSKKTAVNHRIIVKRMQVQLEQAQAQKLGGDSALTETEKKILKAVKSGKPVDYLQSAKGPGGTVTNSEKKILTDLAQRGFMDEVINLMVAYSLGRTRSTNVNREYISKVANDFDFKKIVTAEQGLLALRSGYDKKSQRAKDDSKKKTNVPSWSDPDYDNQTNQADQAKLDEIRRRALAKLEKG; not soluble
HPIFQRDGDDLHCEVPVRISQAALGDIVRVATLDGEAEIRIPAETQSGKLFRLRGKGVRSVRSRTEGDLYCRIVVETPVNLTAEQRKLLEQFEMTFAGEDARK; not soluble
MSLRDSAFFETGEKHFRTLCSSCHSAHQEIYGPMLGSISKKRKESWLIPFIRNSQEVIRSGDAYAKALFEKFDHQIMPPFEQLSDQDIKAILYYLEIESLQPQEYLNDAAIPPTSDSSVIRGKQEFLDHCSMCHFVHKESTFAPALGSVTKRHSREWLISFIQNSEKKINQGDAYAVHLFNQFDQHVMTNMDFLPIEEINAILDYIEFASTVDVAEGHHHHHH; not soluble

---

- Procedure summary: soluble on expression in E. coli; label from the status in PepcDB or PDB records
Property measured: soluble on expression in E. coli

Worked examples follow.
MGSDKIHHHHHHMDASKNSDFKDTWLVVPCYNEATVIREVLENALKTFPNIVAVNDGSPDNSAEEIHAAGAHLVNHPVNLGQGAAIQTGIEYARKQPGAKYFVTFDADGQHQVKDVIRMVERLRAEDVDIIVGTRFGRPRQADDQVPLIKRLVLRTVVLLSPKTRRLGLTDAHNGLRVFNQKVAQEMNIRMNGMSHASEIVDQIDERGWRISEEPVDILYTEYSMSKGQSLLNGVNILADGFLARRLP; not soluble
MEQYHKIVLTGSNAETMLIKNIEPVAVKFINNYKGFFYVFKYSKDFPIIDVYINNKIVTENQLNKILQNSGAKYKIYKNSIFNETQGNFGMLGDKYLAEFFKKTNEISLNILNQNFESYNKKIEFALEIMLISAHYNYDSIKKGYLSYASHVNGFFTRWKDPNKIRDIFHKNYLNNKEYLESKVSEIIDNNNRSSLSELSDIITEMKKEMTTDIEKGNLHVFNIELLQKPGERDFLEKSQFHKTILNNPDFSNFMNKDINFLGSRLITVFTYLLIRNLGIQNKDRYLLCYYIYKIIEEKYNIDTLELIRDFGKGRDNNVEDLQRY; not soluble
MDYQQLANQIKQWAIELGFEKVGICDVDLSEHEPALQAWLDAGYHGEMDWMARHGMMRARPAELLPGTLRVISARINYLPPQAQFASNLSDPNQAYISRYALGRDYHKLVRNQLKKLGEKIEQEVGKLGYRPFVDSAPILERPLAQKAGLGWTGKHSLILDKENGSWFFLGELLVDIPLPVDEPSENQCGKCTACITSCPTNAIVAEGVVDARRCVSYLTIEYSGVIPLEFRRAMGNRIYGCDDCQLVCPWNRFAPLTQQSDFHRRQSLNNADLVVLFEWDEATFLKNMEGSAIRRIGHQQWRRNLIIAMGNAPYSPRIIDTLQRHLGQSELLDEHIHWALEEQTQKTATPRQHARLIRIIEKGLPRDA; not soluble
MAHHHHHHMLNILSYSKLFSSCGRQAVTCPKGCNSYRHVSTGSDECLFTDGRASMGREFTLQPVEMEPVFKVHRPYSSSNCDNPISEDDLPYECGASSDCNTRSSTLRERAVCDEPLAKGLQNTTASTPYRVSWYERGAVSPSKRFVYWAFRRLWDLPPDAREYYRRMLYQEVRAARYVNQTWDCFMMVVDGYRKGKWILKKYGIKIDEGLIPKPYNNFWEETTHEERVWAHRRSHQMKDLQALQREDDNLVFGAHIMDRREVTYGSVKNLQTGMQGGTPVHAHDLPAPFEADVKMSLHEEDISSALMSSIEDDKLWNPVLRSRVHNKLARDEAELYGFEDEDDGDDRS; not soluble
SAVAVEGARRKERILCLFDVDGTLTPARQKIDPETIQNHLGEELLQDLINFCLSYMALLRLPKKRGTFIEFRNGMLNVSPIGRSCTLEERIEFSELDKKEKIREKFVEALKTEFAGKGLRFSRGGMISFDVFPEGWDKRYCLDSLDEDSFDIIHFFGNETSPGGNDFEIYADPRTVGHSVVSPQDTVQRCRELFFPETAHEA; soluble

Read the next record carefully.
Just so you know, measured soluble on expression in E. coli for STEKEKMIAGELYRSADETLSRDRLRARQLIHRYNHSLAEEHTLRQQILADLFGQVTEAYIEPTFRCDYGYNIFLGNNFFANFDCVMLDVCPIRIGDNCMLAPGVHIYTATHPIDPVARNSGAELGKPVTIGNNVWIGGRAVINPGVTIGDNVVVASGAVVTKDVPDNVVVGGNPARIIKKL came out at soluble
